Here the recorded Ki is given for each entry.
system: recombinant human calcineurin catalytic domain, calcineurin(2-347) (Homo sapiens, UniProt Q08209, L343A/M347D/Y341S)
Construct: GST (N, cleaved yes)
Sequence (Q08209 2-347 Y341S/L343A/M347D): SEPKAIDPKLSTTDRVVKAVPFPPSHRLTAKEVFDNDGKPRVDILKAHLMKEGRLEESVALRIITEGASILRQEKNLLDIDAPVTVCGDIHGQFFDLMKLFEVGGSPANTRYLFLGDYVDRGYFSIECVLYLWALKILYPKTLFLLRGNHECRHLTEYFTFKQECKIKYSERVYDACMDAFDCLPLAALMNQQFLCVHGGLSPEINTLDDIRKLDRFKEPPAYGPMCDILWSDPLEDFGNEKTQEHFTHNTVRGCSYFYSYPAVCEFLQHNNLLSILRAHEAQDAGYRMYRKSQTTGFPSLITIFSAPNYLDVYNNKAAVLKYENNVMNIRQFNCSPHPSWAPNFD
assayName: fluorescence polarization competition assay, displacement of OG-VIVIT from calcineurin
parameter: Ki

mol	result
CC(=O)C(C(C)=O)C1=C(Cl)C(=O)C(=O)c2c(C(=O)c3ccccc3)coc21	500 to 2000 nM
O=C1C(Cl)=C(Cl)C(=NS(=O)(=O)c2ccccc2)c2ccccc21	100 to 500 nM
O=C1C=CC(=O)C2=C1C1c3ccccc3C2c2ccccc21	800 to 5000 nM
